- Test system: Staphylococcus epidermidis
- test-name: Antimicrobial activity against methicillin-resistant Staphylococcus epidermidis isolate 404/10 after 18 hrs by twofold serial broth dilution method
- Assay type: functional
- condition-details: isolate 404/10, 18 h
outcome-measure: MIC

# get_value(readout='MIC', item= "CCCCN(CCCC)C(=O)[C@H](CC)[C@H]1CC[C@H](C)[C@H]([C@@H](C)[C@H](O)[C@H](C)C(=O)[C@H](CC)[C@H]2O[C@]3(C=C[C@@H](O)[C@]4(CC[C@@](C)([C@H]5CC[C@](O)(CC)[C@H](C)O5)O4)O3)[C@H](C)C[C@@H]2C)O1" )
8 µg/mL

Dear colleague, I am looking for the recorded MIC of the following molecule: "CC[C@@H](C(=O)[C@@H](C)[C@@H](O)[C@H](C)[C@@H]1O[C@@H]([C@@H](CC)C(=O)N(CC)CC)CC[C@@H]1C)[C@H]1O[C@]2(C=C[C@@H](O)[C@]3(CC[C@@](C)([C@H]4CC[C@](O)(CC)[C@H](C)O4)O3)O2)[C@H](C)C[C@@H]1C"
4 µg/mL

Would you mind telling me what MIC value was observed for "CC[C@@H](C(=O)[C@@H](C)[C@@H](O)[C@H](C)[C@@H]1O[C@@H]([C@@H](CC)C(=O)N2CCNCC2)CC[C@@H]1C)[C@H]1O[C@]2(C=C[C@@H](O)[C@]3(CC[C@@](C)([C@H]4CC[C@](O)(CC)[C@H](C)O4)O3)O2)[C@H](C)C[C@@H]1C" ?
64 µg/mL

* * *

- Tested on: Staphylococcus epidermidis
- test-name: Bactericidal activity against methicillin-resistant Staphylococcus epidermidis isolate 459/11 after 24 hrs
- Assay type: functional
- condition-details: isolate 459/11, 24 h, read-out: MBC99.9
outcome-measure: MBC (µg/mL)
# output: bare number, implied unit µg/mL

Would you mind telling me what MBC value was observed for "CC[C@@H](C(=O)[C@@H](C)[C@@H](O)[C@H](C)[C@@H]1O[C@@H]([C@@H](CC)C(=O)N(Cc2ccccc2)Cc2ccccc2)CC[C@@H]1C)[C@H]1O[C@]2(C=C[C@@H](O)[C@]3(CC[C@@](C)([C@H]4CC[C@](O)(CC)[C@H](C)O4)O3)O2)[C@H](C)C[C@@H]1C" ?
256

Item under review: "CCCN(CCC)C(=O)[C@H](CC)[C@H]1CC[C@H](C)[C@H]([C@@H](C)[C@H](O)[C@H](C)C(=O)[C@H](CC)[C@H]2O[C@]3(C=C[C@@H](O)[C@]4(CC[C@@](C)([C@H]5CC[C@](O)(CC)[C@H](C)O5)O4)O3)[C@H](C)C[C@@H]2C)O1" . Reported MBC?
128

* * *

- Test system: Staphylococcus epidermidis
- test-name: Bactericidal activity against methicillin-resistant Staphylococcus epidermidis isolate 461/11 after 24 hrs
- Format: functional
- condition-details: isolate 461/11, 24 h, read-out: MBC99.9
outcome-measure: MBC (µg/mL)
Record the value in µg/mL, omitting the unit from your answer.

I have this molecule here, "CC[C@@H](C(=O)[C@@H](C)[C@@H](O)[C@H](C)[C@@H]1O[C@@H]([C@@H](CC)C(=O)N(CC)CC)CC[C@@H]1C)[C@H]1O[C@]2(C=C[C@@H](O)[C@]3(CC[C@@](C)([C@H]4CC[C@](O)(CC)[C@H](C)O4)O3)O2)[C@H](C)C[C@@H]1C" , and I need its recorded MBC.
128

Which MBC is listed for "CCCN(CCC)C(=O)[C@H](CC)[C@H]1CC[C@H](C)[C@H]([C@@H](C)[C@H](O)[C@H](C)C(=O)[C@H](CC)[C@H]2O[C@]3(C=C[C@@H](O)[C@]4(CC[C@@](C)([C@H]5CC[C@](O)(CC)[C@H](C)O5)O4)O3)[C@H](C)C[C@@H]2C)O1" ?
128

* * *

- Tested on: Staphylococcus epidermidis
- test-name: Antimicrobial activity against methicillin-resistant Staphylococcus epidermidis isolate 469/11 after 18 hrs by twofold serial broth dilution method
- Type: functional
- condition-details: isolate 469/11, 18 h
outcome-measure: MIC

Record "CC[C@@H](C(=O)[C@@H](C)[C@@H](O)[C@H](C)[C@@H]1O[C@@H]([C@@H](CC)C(=O)N(CCO)CCO)CC[C@@H]1C)[C@H]1O[C@]2(C=C[C@@H](O)[C@]3(CC[C@@](C)([C@H]4CC[C@](O)(CC)[C@H](C)O4)O3)O2)[C@H](C)C[C@@H]1C" : what is its MIC with Staphylococcus epidermidis?
4 µg/mL

* * *

- Test system: Staphylococcus epidermidis
- test-name: Bactericidal activity against methicillin-resistant Staphylococcus epidermidis isolate 458/11 after 24 hrs
- Format: functional
- condition-details: isolate 458/11, 24 h, read-out: MBC99.9
Answer each item with its documented MBC.

What reported MBC corresponds to "CC[C@@H](C(=O)[C@@H](C)[C@@H](O)[C@H](C)[C@@H]1O[C@@H]([C@@H](CC)C(=O)N(Cc2ccccc2)Cc2ccccc2)CC[C@@H]1C)[C@H]1O[C@]2(C=C[C@@H](O)[C@]3(CC[C@@](C)([C@H]4CC[C@](O)(CC)[C@H](C)O4)O3)O2)[C@H](C)C[C@@H]1C" on Staphylococcus epidermidis?
> 256 µg/mL

Quick check: MBC on Staphylococcus epidermidis, item "CC[C@@H](C(=O)[C@@H](C)[C@@H](O)[C@H](C)[C@@H]1O[C@@H]([C@@H](CC)C(=O)N2CCNCC2)CC[C@@H]1C)[C@H]1O[C@]2(C=C[C@@H](O)[C@]3(CC[C@@](C)([C@H]4CC[C@](O)(CC)[C@H](C)O4)O3)O2)[C@H](C)C[C@@H]1C" ?
> 256 µg/mL

For the record "CCCCCCCCN(CCCCCCCC)C(=O)[C@H](CC)[C@H]1CC[C@H](C)[C@H]([C@@H](C)[C@H](O)[C@H](C)C(=O)[C@H](CC)[C@H]2O[C@]3(C=C[C@@H](O)[C@]4(CC[C@@](C)([C@H]5CC[C@](O)(CC)[C@H](C)O5)O4)O3)[C@H](C)C[C@@H]2C)O1" , what value of MBC is listed for Staphylococcus epidermidis?
> 256 µg/mL

Lab note: need MBC for "CC[C@@H](C(=O)[C@@H](C)[C@@H](O)[C@H](C)[C@@H]1O[C@@H]([C@@H](CC)C(=O)N(CCOC)CCOC)CC[C@@H]1C)[C@H]1O[C@]2(C=C[C@@H](O)[C@]3(CC[C@@](C)([C@H]4CC[C@](O)(CC)[C@H](C)O4)O3)O2)[C@H](C)C[C@@H]1C" on Staphylococcus epidermidis, anyone have it?
> 256 µg/mL

* * *

- Test system: Staphylococcus epidermidis
- test-name: Antimicrobial activity against methicillin-resistant Staphylococcus epidermidis isolate 404/10 after 18 hrs by twofold serial broth dilution method
- Type: functional
- condition-details: isolate 404/10, 18 h
outcome-measure: MIC (µg/mL)
Enter your answer as a number in µg/mL; do not include the unit.

Would you kindly share the measured MIC for "CC[C@@H](C(=O)[C@@H](C)[C@@H](O)[C@H](C)[C@@H]1O[C@@H]([C@@H](CC)C(=O)N(CCOC)CCOC)CC[C@@H]1C)[C@H]1O[C@]2(C=C[C@@H](O)[C@]3(CC[C@@](C)([C@H]4CC[C@](O)(CC)[C@H](C)O4)O3)O2)[C@H](C)C[C@@H]1C" ?
128

Request the reported MIC associated with "CCCCCCCCN(CCCCCCCC)C(=O)[C@H](CC)[C@H]1CC[C@H](C)[C@H]([C@@H](C)[C@H](O)[C@H](C)C(=O)[C@H](CC)[C@H]2O[C@]3(C=C[C@@H](O)[C@]4(CC[C@@](C)([C@H]5CC[C@](O)(CC)[C@H](C)O5)O4)O3)[C@H](C)C[C@@H]2C)O1"
256

Fill in: MIC of "CC[C@@H](C(=O)[C@@H](C)[C@@H](O)[C@H](C)[C@@H]1O[C@@H]([C@@H](CC)C(=O)N(Cc2ccccc2)Cc2ccccc2)CC[C@@H]1C)[C@H]1O[C@]2(C=C[C@@H](O)[C@]3(CC[C@@](C)([C@H]4CC[C@](O)(CC)[C@H](C)O4)O3)O2)[C@H](C)C[C@@H]1C" is ___
32

* * *

- System: Staphylococcus aureus
- test-name: Bactericidal activity against Staphylococcus aureus ATCC 6538 after 24 hrs
- Type: functional
- condition-details: ATCC 6538, 24 h, read-out: MBC99.9
Provide the reported MBC of each item.
Dear colleague, please return just the value in µg/mL, with no unit written.

// MBC lookup, key: "CC[C@@H](C(=O)[C@@H](C)[C@@H](O)[C@H](C)[C@@H]1O[C@@H]([C@@H](CC)C(=O)N(Cc2ccccc2)Cc2ccccc2)CC[C@@H]1C)[C@H]1O[C@]2(C=C[C@@H](O)[C@]3(CC[C@@](C)([C@H]4CC[C@](O)(CC)[C@H](C)O4)O3)O2)[C@H](C)C[C@@H]1C"
256

Quick one: MBC of "CCCN(CCC)C(=O)[C@H](CC)[C@H]1CC[C@H](C)[C@H]([C@@H](C)[C@H](O)[C@H](C)C(=O)[C@H](CC)[C@H]2O[C@]3(C=C[C@@H](O)[C@]4(CC[C@@](C)([C@H]5CC[C@](O)(CC)[C@H](C)O5)O4)O3)[C@H](C)C[C@@H]2C)O1" ?
256

Sample "CCCCN(CCCC)C(=O)[C@H](CC)[C@H]1CC[C@H](C)[C@H]([C@@H](C)[C@H](O)[C@H](C)C(=O)[C@H](CC)[C@H]2O[C@]3(C=C[C@@H](O)[C@]4(CC[C@@](C)([C@H]5CC[C@](O)(CC)[C@H](C)O5)O4)O3)[C@H](C)C[C@@H]2C)O1" — what was its MBC?
256

The measurements presented in this section are drawn from ChEMBL document CHEMBL3400015.
